tested on: UACC-257 melanoma; test: NCI tumour cell line growth inhibition, 48 h
attribute_measured: GI50

Study these solved cases before continuing.
Request: Returns the measured GI50 for the input compound. Input: `CN(C)c1ccc(/C=C\c2cccc[n+]2C)cc1`
Result: 7.81 µM

Request: Please give the result for `O[C@H]1CO[C@H]2[C@@H]1OC[C@@H]2Oc1ccc(Nc2ccnc(Nc3ccc(O[C@H]4CO[C@H]5[C@@H]4OC[C@@H]5O)c(Cl)c3)n2)cc1Cl` too.
Result: 2.7 µM

Request: Queued: `O=C(NN1C(=O)CSC12CCCCC2)c1[nH]c2ccc(F)cc2c1-c1ccccc1`
Result: 23.3 µM

Request: Same thing, different compound: O=C(c1ccccc1)C(CN1CCOCC1)c1ccccc1 (stereo not given)
Result: 1.37 µM

---
Request: Value lookup for GI50; key = `O=C1c2ccccc2-c2c1c1ccc([N+](=O)[O-])cc1c(=O)n2CCCBr`
Result: > 100 µM

###

Listed compounds paired with reported TGI
tested on: OVCAR-5 ovarian; assay: NCI tumour cell line growth inhibition, 48 h
Just the number please, in µM, no unit attached.

Request: Quick one: TGI of `Cc1ccc(-c2cc(-c3ccc(C)cc3)nc(NCCNc3ccnc4cc(Cl)ccc34)n2)cc1` ?
Result: 3.07

Request: Note, next up: `CN(C)CCNc1nc(-c2ccc3ccccc3c2)nc2nc[nH]c12`
Result: 26

###

test system: NCI/ADR-RES ovarian; experiment: NCI tumour cell line growth inhibition, 48 h
Listing of entries alongside the reported GI50.

Recorded GI50, per entry:
Request: Report GI50 for `N#Cc1c(N/N=C/c2c(Cl)cccc2Cl)nc(N)nc1N1CCOCC1` please.
Result: 9.98 µM

Request: Consider next the compound `COc1cc2c(cc1OCCCCOc1cc3c(cc1OC)C(=O)N1CCC[C@H]1CN3)N=C[C@@H]1CCCN1C2=O` in the same way.
Result: 45 µM

Continuing:
Request: Recorded GI50 for `C=C1CC[C@@H]2[C@](C)(COC(C)=O)[C@@H](O)CC[C@@]2(C)[C@@H]1COc1ccc2ccc(=O)oc2c1` , please?
Result: > 100 µM

Request: Same thing, different compound: `Cc1cc2c3ccc(C)[n+](C)c3ccc2n1C`
Result: > 100 µM

Request: Try this compound next: `Cn1c2c(cc(S(=O)(=O)c3ccccc3)c1=O)CCc1c-2cnn1-c1ccc(Cl)cc1`
Result: 3.09 µM

Request: Follow-up item: `N/C(=N\N=C\c1ccc(-c2ccccc2)cc1)N[N+](=O)[O-]`
Result: 1.46 µM

Request: Proceed to `C[C@@H]1CC[C@H]2C(COCCOCC3=C(C(F)(F)F)O[C@@H]4O[C@@]5(C)CC[C@H]6[C@H](C)CC[C@@H]3[C@@]46OO5)=C(C(F)(F)F)O[C@@H]3O[C@@]4(C)CC[C@@H]1[C@]32OO4`
Result: 5.57 µM

Request: Could you do the same for C[C@]12CCC3[C@@H](CC[C@@H]4c5nonc5CC[C@]34C)C1CCC(=O)N2 (stereo not given in full) , please?
Result: > 100 µM

###

system: SNB-75 CNS; assay: NCI tumour cell line growth inhibition, 48 h
attribute_measured: TGI (µM)
State the answer as a number, implicitly in µM.

Please review the following examples before continuing.
Request: Param readout= TGI; system= SNB-75 CNS; entry= CC1=C(N2CC2)C(=O)c2nc3n(c2C1=O)CCC3OC(=O)CCl (stereo not drawn) ; returns value.
Result: 0.05

Request: Follow-up entry: `COC(=O)c1ccc2c(O)c(O)ccc2c1`
Result: 25.4

Request: Now the same for `CCN=C1C=CC(=C(c2ccc(N)cc2)c2ccc(N(CC)CC)c(C)c2)C=C1`
Result: 0.65

More entries:
Request: For SNB-75 CNS, provide TGI of `COc1cc2nc(N3CCCC3)nc(NCC3CCCCC3)c2cc1OC` please.
Result: 2.81

Request: Same question, `COc1cc(OC)c(OC)cc1/C=N/N=C(\N)NO` this time
Result: 93.5

Request: # repeat for `O=[N+]([O-])/C=C1\COCc2cc3c(cc21)OCO3`
Result: 38.9

Request: Thanks! And `CN1CCN(Cc2ccc(NC(=O)c3cncc(C#Cc4cnc(N)c5ccncc45)c3)cc2C(F)(F)F)CC1` ?
Result: 5.08

Request: Input `O=C(NN1C(=O)CSC12CCCCC2)c1[nH]c2ccc(F)cc2c1-c1ccccc1`
Result: 36.2

Request: Let us now turn to `CC(=O)Nc1ccccc1SCCSSCCSc1ccccc1NC(C)=O`
Result: 73.2

Request: How about this compound: COC(=O)C1=CSC2(S1)C(C(=O)OC)=CSc1c2ssc1=Nc1ccccc1 (stereo not drawn)
Result: 6.09
